Reported values: IC50 for Vascular endothelial growth factor receptor 2 (Homo sapiens), one per item.
Assay endpoint: IC50 (nM)

{"Record smiles": "Cc1cccc(NC(=O)Nc2ccc(-c3csc4c(-c5cncnc5)cnc(N)c34)cc2)c1", "IC50 (nM)": 8}
{"Record smiles": "Nc1nccc2scc(-c3ccc(NC(=O)Nc4cccc5ccccc45)cc3)c12", "IC50 (nM)": 75}
{"Record smiles": "Nc1nccc2scc(-c3ccc(NC(=O)Nc4ccc5ccccc5c4)cc3)c12", "IC50 (nM)": 21}

(1) Cc1cccc(NC(=O)Nc2cccc(-c3csc4ccnc(N)c34)c2)c1
(2) Cc1cccc(NC(=O)Nc2ccc(-c3csc4c(-c5ccccc5)cnc(N)c34)cc2)c1
Sorting by IC50 in descending order, would 1 or 2 appear first? Return value: the label identifying the chosen record. 1
(1: 250 nM, 2: 13 nM)

(a) Cc1cc(C)cc(NC(=O)Nc2ccc(-c3csc4ccnc(N)c34)cc2)c1
(b) Cc1cccc(NC(=O)N(C)c2ccc(-c3csc4ccnc(N)c34)cc2)c1
Would you let me know which has the greater IC50 value, a or b ? Pick one; state its label. b

(A) Nc1nccc2scc(-c3ccc(NC(=O)NC4CCCCC4)cc3)c12
(B) Cc1ccc(NC(=O)Nc2ccc(-c3csc4ccnc(N)c34)cc2)cc1
(C) N#Cc1cccc(NC(=O)Nc2ccc(-c3csc4ccnc(N)c34)cc2)c1
(D) Nc1nccc2scc(-c3ccc(NC(=O)c4ccccc4)cc3)c12
Ranking field: IC50; order: falling. # the answer lists labels in the order requested D, A, C, B
(D: 12000 nM, A: 491 nM, C: 45 nM, B: 26 nM)

(P) Cc1cccc(NC(=O)Nc2ccc(-c3c(C)sc4ccnc(N)c34)cc2)c1
(Q) Cc1ccccc1NC(=O)Nc1ccc(-c2csc3ccnc(N)c23)cc1
(R) Nc1ccc(-c2csc3ccnc(N)c23)cc1
(S) Cc1cccc(NC(=S)Nc2ccc(-c3csc4ccnc(N)c34)cc2)c1
(T) Nc1nccc2scc(-c3ccc(NC(=O)Nc4ccccc4)cc3)c12
# desc sort on IC50 across 5 compounds Please, when replying, give the labels in the order that was requested. R, S, Q, T, P
